B1: Mineralocorticoid receptor, residues 600 to 675; numbered along this chain, P08235 (parent)
chain: SKICLVCGDEASGCHYGVVTCGSCKVFFKRAVEGQHNYLCAGRNDCIIDKIRRKNCPACRLQKCLQAGMNLGARKS

variants of: B1; experiment: abundance fitness (aPCA) (normalised: wild type 0, dead -1); higher = more abundant; growth selection in yeast, the domain comes from the species named; conditions: Homo sapiens

| Mutation String | abundance fitness |
| --- | --- |
| L61A | -0.315 |
| G68A | -0.382 |
| R53V | 0.025 |
| G13N | 0.043 |
| S76P | 0.007 |
| G13L | -0.073 |
| K2L | -0.099 |
| A31E | -0.022 |
| L39Y | -0.054 |
| D45G | -0.079 |
| C24P | -0.878 |
| C21K | -1.25 |
| H15Y | -0.057 |
| N37W | -0.23 |
| C4P | -0.986 |
| Q62T | -0.052 |
| G68I | -0.266 |
| S23N | 0.051 |
| V6S | -0.512 |
| K75P | 0.011 |
| K2F | -0.267 |
| Y16V | 0.013 |
| L39P | -0.07 |
| G22K | -0.063 |
| G34W | -0.165 |
| T20S | -0.017 |
| A67W | -0.055 |
| I51H | 0.062 |
| A11H | -0.13 |
| G13F | -0.047 |
| R52W | -0.052 |
| Q62A | -0.013 |
| Q62V | -0.022 |
| K25S | -0.033 |
| H36E | -0.004 |
| L61V | -0.101 |
| Q62K | 0.046 |
| R43Q | -0.067 |

Data credit: the Human Domainome abundance scans (Beltran et al. 2025)
